Reference source: patent US9169254B2

Molecular target: human PTH1 receptor (Homo sapiens, UniProt Q03431)
Sequence (Q03431 27-593): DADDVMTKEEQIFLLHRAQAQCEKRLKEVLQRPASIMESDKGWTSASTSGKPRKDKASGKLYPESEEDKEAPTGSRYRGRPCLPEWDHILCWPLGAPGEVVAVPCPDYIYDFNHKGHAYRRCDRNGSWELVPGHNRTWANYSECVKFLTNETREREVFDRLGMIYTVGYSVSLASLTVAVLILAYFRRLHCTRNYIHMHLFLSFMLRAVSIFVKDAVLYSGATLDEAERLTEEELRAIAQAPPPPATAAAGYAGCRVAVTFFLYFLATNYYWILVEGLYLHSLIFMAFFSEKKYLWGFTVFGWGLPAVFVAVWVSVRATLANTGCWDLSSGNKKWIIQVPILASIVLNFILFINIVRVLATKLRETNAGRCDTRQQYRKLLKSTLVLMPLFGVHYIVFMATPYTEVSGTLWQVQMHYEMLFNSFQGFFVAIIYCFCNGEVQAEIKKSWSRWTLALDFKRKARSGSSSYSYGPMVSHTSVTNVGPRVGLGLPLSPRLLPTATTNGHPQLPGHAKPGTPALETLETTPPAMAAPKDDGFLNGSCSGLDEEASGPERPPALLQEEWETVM
Assay: In vitro cAMP signal activity in HKRK-B7 cells (LLC-PK1 cells overexpressing the human PTH1 receptor)
Type: cell-based
Conditions: HKRK-B7 cells; compound at 1×10^−3 M; cAMP produced as percentage of that produced by hPTH(1-34) at 100 nM
What cAMP production activity (%) was measured for each of the following?
One number for each entry, in %.

Below, each entry is followed by its recorded cAMP production activity (%) result.
>>> observed("Cc1cc(NS(=O)(=O)NCCCO)ccc1/C=C/S(=O)(=O)N1CCC2(CC1)N=C(c1cccc(OC(F)(F)F)c1)NC2=O [Compound 743]")
54
>>> observed("CC(=O)Nc1cc(C)c(/C=C/S(=O)(=O)N2CCC3(CC2)N=C(c2cccc(OC(F)(F)F)c2)NC3=O)c(C)c1 [Compound 238]")
90

As a next step, examine the molecule that follows.
Enquiry: Which measured cAMP production activity (%) value corresponds to Cc1cc(C(=O)N2CCC[C@@H]2C(N)=O)ccc1CCS(=O)(=O)N1CCC2(CC1)N=C(c1cccc(C(F)(F)F)c1)NC2=O [Compound 369] ?
Return: 43
